- test-description: inhibitors of PMA/ionomycin-induced NF-kB reporter, primary screen, antigen receptor NF-kB inhibitor project, cell-based, HEK-293 luciferase reporter, luminescence (AID 465)
- test-context: HEK-293 NF-kB luciferase reporter, at 3 µM, stronger effect = higher value
Out of some 62,000 compounds screened, about 130 (0.21%) were called active. Many of the other results were omitted from the sample, so actives are more common in it than they were.
Short version: inhibition at least -10% is Condition met, less is Condition not met.

1. CC1=CC(C)(C)N(C(=O)CSc2nccn2C)c2cc(C)ccc21 = Condition met
2. CC(Sc1nncs1)C(=O)NCc1ccc2c(c1)OCO2 (stereo unspecified) = Condition met
3. COc1cccc(NS(=O)(=O)c2ccc3[nH]cc(C(=O)NCCCOC(C)C)c(=O)c3c2)c1 = Condition met
4. CCOC(=O)c1c(C)[nH]c(C(=O)NCc2ccccc2OC)c1C = Condition not met
5. CCCCC(=O)Nc1cc(C)c2c(=O)oc3ccccc3c2n1 = Condition met
6. CCN(CC)S(=O)(=O)c1cc(C(=O)Nc2ccccn2)ccc1C = Condition not met
